TARGET UNDER TEST: T1, human Sdc2 (human, UniProt P34741 19-144, limits assumed)
T1 construct: Antigen of the Octet tandem binning, loaded on biosensors at 100 nM; also called huSdc2; hSdc2
T1 sequence (P34741 19-144 limits assumed): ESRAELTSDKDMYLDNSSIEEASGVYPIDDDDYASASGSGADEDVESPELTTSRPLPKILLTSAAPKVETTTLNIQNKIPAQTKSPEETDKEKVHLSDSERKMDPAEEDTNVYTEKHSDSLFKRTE
TEST PROTOCOL: Octet tandem binning; saturating Ab f12 19838-6-N03-A
MEASURED PARAMETER: raw competing-Ab binding signal
The answer should be a number; do not append a unit.

Below: 2 binders and their reported raw competing-Ab binding signal.
>  <BINDER>
R4M-P3-E06 (antibody, human IgG1, kappa, V domains shown, human IgG1 kappa from the phage campaign) VH: EVQLVESGGGVVQPGGSLRLSCAASGFTFSNYGMHWVRQAPGKGLEWVATISYDGTKKYYPDSVRGRFTISRDNSENMLYLQMDSLRLEDTAVIYCAKDLVSGSRYGFAFDSWGPGTLVTVSS VL: DIVMTQSPLSLPVTLGQPASISCRSSQSLVHSDGNTYLNWFQQRPGQSPRRLIYKVSNRDSGVPDRFSGTGSGTDFTLKISRVEADDVGVYYCMQGTHWPPIFGQGTRLEIKR

>  <raw competing-Ab binding signal>
0.252

$$$$
>  <BINDER>
R4M-P1-A10 (antibody, human IgG1, kappa, V domains shown) VH: EVQLVETGGGVVQPGRSLRLSCAASGFTFSSYAMHWVRQAPGKGLEWVAVISYDGSNKYYADSVKGRFTISRDNSKNTLYLQMNSLRAEDTAVYYCARDRGWADAFDIWGQGTMVTVSS VL: QAGLTQPPSVSKGLRQTATLTCTGNSNNVGYQGAVWLLQYQGHPPKVLSNRNNDRPSGISERLSASRSGNTASLTITGLQPEDEGDYFCAAWDGSLRGWVFGGGTKLTVLR

>  <raw competing-Ab binding signal>
0.406

$$$$

Problem: What value of measured raw competing-Ab binding signal is listed for 8-G17-A (antibody, V domains shown, PentaMice hybridoma clone, made recombinantly in CHO cells) VH: EVQLVESGGGLVKPGGSLKLSCEASGITFSNYVMSWVRQTPEKRLEWVATISDGGSYTYYPDNLKGRFTISRDNAKNNLYLQMSHLKSEDTAMYYCVRDRYDYDGRVYAMDYWGQGTSVTVSS VL: DVVMTQTPLSLPVSLGDQASISCRSSQSLVHSNGNTYLHWYLQKPGQSPKLLIYKVSNRFSGVPDRFSGSGSGTDFTLKITRVEAEDLGVYFCSQSTHVPWTFGGGTKLEIKR ?
Solution: 0.0566
